# maps each entry to its melting point

Here's what some known entries look like.
O=S(=O)(O)c1ccc2c(NCCCCCc3ccccc3)cccc2c1 (hydrate or solvate) [Compound 3e] = > 300 °C
O=C(O)c1cnn(-c2ccc(S(=O)(=O)NCCc3ccccc3)cc2)c1NCCc1ccccc1 [Compound 29] = 105 to 107 °C
O=C(O)c1ccc(CNc2cccc3cc(S(=O)(=O)O)ccc23)cc1 (hydrate or solvate) [Compound 4] = > 300 °C

Request: Which melting point is reported for this molecule? CCCN(CCC)S(=O)(=O)c1ccc(C(=O)Nc2cccc3cc(S(=O)(=O)O)ccc23)cc1 (hydrate or solvate) [Compound 7b]
Result: > 300 °C

Request: Which melting point is reported for this molecule? O=S(=O)(O)c1ccc2c(NCc3ccccc3)cccc2c1 (hydrate or solvate) [Compound 3a]
Result: > 300 °C

Request: Which melting point is reported for this molecule? COC(=O)c1ccc(CNc2cccc3cc(S(=O)(=O)O)ccc23)cc1 [Compound 3f]
Result: > 300 °C

Request: Which melting point is reported for this molecule? CCCCNS(=O)(=O)c1ccc(-n2ncc(C(=O)O)c2N)cc1 [Compound 18c]
Result: > 300 °C

Request: Which melting point is reported for this molecule? CCCNc1c(C(=O)O)cnn1-c1ccc(S(=O)(=O)N(CCC)CCC)cc1 [Compound 19c]
Result: 170 to 172 °C

====

Target: Panx-1 channels (Mus musculus, UniProt Q9JIP4)
Construct: expressed in transfected cells; host or cells: Xenopus laevis oocytes injected with in vitro-transcribed mRNA
Sequence (Q9JIP4 whole entry): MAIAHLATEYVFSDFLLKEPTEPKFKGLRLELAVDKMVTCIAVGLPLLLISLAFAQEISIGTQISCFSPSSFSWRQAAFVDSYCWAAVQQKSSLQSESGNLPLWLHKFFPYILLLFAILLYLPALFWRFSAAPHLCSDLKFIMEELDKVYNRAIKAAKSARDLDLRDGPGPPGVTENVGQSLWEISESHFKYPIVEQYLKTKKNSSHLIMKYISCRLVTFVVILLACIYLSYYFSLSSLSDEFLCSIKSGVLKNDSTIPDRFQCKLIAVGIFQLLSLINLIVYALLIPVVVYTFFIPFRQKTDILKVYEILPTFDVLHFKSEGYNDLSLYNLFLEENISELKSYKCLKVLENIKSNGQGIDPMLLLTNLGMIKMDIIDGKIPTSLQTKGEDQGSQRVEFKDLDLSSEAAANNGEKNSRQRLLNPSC
Assay: Voltage clamp on Xenopus laevis oocytes expressing Panx-1 channels
Assay type: cell-based
Conditions: 50 µM; voltage clamp, Xenopus laevis oocytes expressing Panx-1 channels; read-out: I (%) inhibition of Panx-1 currents
READOUT: inhibition at 50 µM (%)

O=C(O)c1ccc(CN(Cc2ccc(C(=O)O)cc2)S(=O)(=O)c2ccc(C(=O)O)cc2)cc1 = 94
O=S(=O)(O)c1ccc2c(NCCCc3ccccc3)cccc2c1 = 66.7
CCCN(CCC)S(=O)(=O)c1ccc(-n2ncc(C(=O)O)c2N)cc1 [Compound 19b] = 21

I. Nc1c(C(=O)O)cnn1-c1ccc(S(N)(=O)=O)cc1
II. O=C(Nc1cccc2cc(S(=O)(=O)O)ccc12)c1ccccc1
III. CCN(CC)S(=O)(=O)c1ccc(C(=O)Nc2cccc3cc(S(=O)(=O)O)ccc23)cc1
IV. CCCNS(=O)(=O)c1ccc(-n2ncc(C(=O)O)c2N)cc1 [Compound 18b]
V. CCCCNS(=O)(=O)c1ccc(-n2ncc(C(=O)O)c2N)cc1 [Compound 18c]
Request: Order field: inhibition at 50 µM | Direction: descending (largest first) API: response body holds the labels in the requested order.
Result: III, II, V, IV, I
(III: 54%, II: 15%, V: 10.3%, IV: 4%, I: 0%)

====

# maps each entry to its melting point

Here's what some known entries look like.
O=C(Nc1cccc2cc(S(=O)(=O)O)ccc12)c1ccc(S(=O)(=O)N(CCc2ccccc2)CCc2ccccc2)cc1 (hydrate or solvate) [Compound 7e] = > 300 °C
CCNS(=O)(=O)c1ccc(-n2ncc(C(=O)O)c2N)cc1 [Compound 18a] = 208 to 210 °C (dec.)
CN(Cc1ccccc1)c1cccc2cc(S(=O)(=O)O)ccc12 (hydrate or solvate) [Compound 5] = > 300 °C
O=C(O)c1ccc(CN(Cc2ccc(C(=O)O)cc2)S(=O)(=O)c2ccc(C(=O)O)cc2)cc1 (hydrate or solvate) [Compound 13] = > 300 °C
O=S(=O)(O)c1ccc2c(NCCCCc3ccccc3)cccc2c1 (hydrate or solvate) [Compound 3d] = > 300 °C
O=C(Nc1cccc2cc(S(=O)(=O)O)ccc12)c1ccc(S(=O)(=O)N(Cc2ccccc2)Cc2ccccc2)cc1 (hydrate or solvate) [Compound 7d] = > 300 °C
Nc1c(C(=O)O)cnn1-c1ccc(S(=O)(=O)NCCc2ccccc2)cc1 [Compound 28] = 186 to 188 °C
Nc1c(C(=O)O)cnn1-c1ccc(S(=O)(=O)N(CCc2ccccc2)Cc2ccccc2)cc1 [Compound 30] = 263 to 266 °C (dec.)

Request: Which melting point is reported for this compound? O=S(=O)(O)c1ccc2c(NCCCc3ccccc3)cccc2c1 (hydrate or solvate) [Compound 3c]
Result: > 300 °C

====

Biological target: Panx-1 channels (Mus musculus, UniProt Q9JIP4)
Construct: expressed in transfected cells; host or cells: Xenopus laevis oocytes injected with in vitro-transcribed mRNA
Test: Voltage clamp on Xenopus laevis oocytes expressing Panx-1 channels
Format: cell-based
Settings: 50 µM; voltage clamp, Xenopus laevis oocytes expressing Panx-1 channels; read-out: I (%) inhibition of Panx-1 currents
READOUT: inhibition at 50 µM (%)

Nc1c(C(=O)O)cnn1-c1ccc(S(=O)(=O)N(Cc2ccccc2)Cc2ccccc2)cc1 = 42

a. O=C(Nc1cccc2cc(S(=O)(=O)O)ccc12)c1ccc(S(=O)(=O)N(CCc2ccccc2)CCc2ccccc2)cc1
b. Nc1c(C(=O)O)cnn1-c1ccc(S(=O)(=O)N(CCc2ccccc2)Cc2ccccc2)cc1
Request: Hey, which is lower on measured inhibition at 50 µM, a or b ? Write the label of whichever entry you select.
Result: b

P. CCCNc1c(C(=O)O)cnn1-c1ccc(S(=O)(=O)N(CCC)CCC)cc1 [Compound 19c]
Q. O=S(=O)(O)c1ccc2c(NCCCCCc3ccccc3)cccc2c1
Request: Hey, which is lower on measured inhibition at 50 µM, P or Q ? Write the label of whichever entry you select.
Result: P
(P: 28%, Q: 62%)

====

Biological target: Panx-1 channels (Mus musculus, UniProt Q9JIP4)
Construct: expressed in transfected cells; host or cells: Xenopus laevis oocytes injected with in vitro-transcribed mRNA
Assay: Voltage clamp on Xenopus laevis oocytes expressing Panx-1 channels
Format: cell-based
Details: 50 µM; voltage clamp, Xenopus laevis oocytes expressing Panx-1 channels; read-out: I (%) inhibition of Panx-1 currents
READOUT: inhibition at 50 µM (%)

CN(Cc1ccccc1)c1cccc2cc(S(=O)(=O)O)ccc12 [Compound 5] = 27.3
Nc1c(C(=O)O)cnn1-c1ccc(S(=O)(=O)NCCc2ccccc2)cc1 [Compound 28] = 22.7

I. O=S(=O)(O)c1ccc2c(NCCc3ccccc3)cccc2c1 [Compound 3b]
II. O=C(Nc1cccc2cc(S(=O)(=O)O)ccc12)c1ccc(S(=O)(=O)NCCc2ccccc2)cc1 [Compound 7g]
Request: Determine, for I and II , which has the greater value of inhibition at 50 µM. Write the label of whichever entry you select.
Result: II
(II: 47.3%, I: 24.3%)

====

Molecular target: Panx-1 channels (Mus musculus, UniProt Q9JIP4)
Construct: expressed in transfected cells; host or cells: Xenopus laevis oocytes injected with in vitro-transcribed mRNA
Test: Voltage clamp on Xenopus laevis oocytes expressing Panx-1 channels
Format: cell-based
Conditions: 50 µM; voltage clamp, Xenopus laevis oocytes expressing Panx-1 channels
READOUT: I (%) inhibition of Panx-1 currents

a. O=C(O)c1ccc(CN(Cc2ccc(C(=O)O)cc2)S(=O)(=O)c2ccc(C(=O)O)cc2)cc1
b. CCCN(CCC)S(=O)(=O)c1ccc(C(=O)Nc2cccc3cc(S(=O)(=O)O)ccc23)cc1
c. O=C(Nc1cccc2cc(S(=O)(=O)O)ccc12)c1ccccc1
d. CCCCN(CCCC)S(=O)(=O)c1ccc(C(=O)Nc2cccc3cc(S(=O)(=O)[O-])ccc23)cc1.[Na+]
Request: sort_by: I (%) inhibition of Panx-1 currents; order: ascending; scope: items listed above API: response body holds the labels in the requested order.
Result: c, b, d, a
(c: 15.3%, b: 34.3%, d: 65.3%, a: 93.7%)

====

READOUT: melting point

O=S(=O)(O)c1ccc2c(NCCc3ccccc3)cccc2c1 (hydrate or solvate) = > 300 °C
O=C(Nc1cccc2cc(S(=O)(=O)O)ccc12)c1ccc(S(=O)(=O)N(CCc2ccccc2)Cc2ccccc2)cc1 (hydrate or solvate) = > 300 °C
Nc1c(C(=O)O)cnn1-c1ccc(S(N)(=O)=O)cc1 = 210 to 211 °C

Next molecule, melting point to be filled in.
Request: Which melting point is reported for this molecule? CCN(CC)S(=O)(=O)c1ccc(-n2ncc(C(=O)O)c2N)cc1 [Compound 19a]
Result: 240 °C (dec.)

====

Target: Panx-1 channels (Mus musculus, UniProt Q9JIP4)
Test: Voltage clamp on Xenopus laevis oocytes expressing Panx-1 channels
Details: dose-response curves, Panx1-mediated membrane currents in oocytes
READOUT: IC50 (µM)

O=S(=O)(O)c1ccc2c(NCCCc3ccccc3)cccc2c1 = 9

I. O=C(O)c1ccc(CNc2cccc3cc(S(=O)(=O)O)ccc23)cc1
II. O=C(Nc1cccc2cc(S(=O)(=O)O)ccc12)c1ccc(S(=O)(=O)N(Cc2ccccc2)Cc2ccccc2)cc1
III. CCCCN(CCCC)S(=O)(=O)c1ccc(C(=O)Nc2cccc3cc(S(=O)(=O)O)ccc23)cc1
IV. O=C(O)c1ccc(CN(Cc2ccc(C(=O)O)cc2)S(=O)(=O)c2ccc(C(=O)O)cc2)cc1
Request: Order field: IC50 | Direction: descending (largest first) API: response body holds the labels in the requested order.
Result: III, II, I, IV
